Give IC50 for every item shown.
Tested on: MYB mRNA
Assay: Gene panel canonical junction qPCR assay, decrease in CJ mRNA, Table 3
Type: cell-based
Conditions: decrease in canonical junction (CJ) mRNA, gene panel qPCR, Table 3

CCNC1CCN(c2ccc(C(=O)Nc3cc4c(C)nc(C)cn4c3)c3nn(C)cc23)CC1    1000 to 10000 nM
CCNC1CCN(c2ccc(C(=O)Nc3cc(F)c4nn(C)cc4c3)c3nn(C)cc23)CC1    < 100 nM
CCNC1CCN(c2cc(OC)c(C(=O)Nc3cn4cc(C)nc(C)c4n3)c3nn(C)cc23)CC1    > 10000 nM

Need IC50 for each of these compounds.
1. COC1CC(N[C@H]2CCN(c3ccc(C(=O)Nc4cc(F)c5nc(C)cn5c4)c4nn(C)cc34)C2)C1 (stereo partly drawn)
2. Cc1cn2cc(C(=O)Nc3ccc(N4CCNCC4)c4cn[nH]c34)cc(F)c2n1
3. COc1cc2nn(C)cc2cc1NC(=O)c1ccc(N2CCC3(CCCN3)CC2)c2cn(C)nc12
4. Cn1cc2cc(NC(=O)c3c(F)cc(N4CCC(NC5CC5)CC4)c4cn(C)nc34)c(OC3CCOC3)cc2n1 (stereo not drawn)
5. CCNC1CCN(c2cc(F)c(C(=O)Nc3cn4cc(C)nc(OC)c4n3)c3nn(C)cc23)CC1

1: < 100 nM; 2: > 10000 nM; 3: < 100 nM; 4: < 100 nM; 5: 1000 to 10000 nM

Return reported IC50 values for all items listed beneath this line.
1. CC1OB(O)c2cc(NC(=O)c3c(F)cc(N4CCC(NC5CC5)CC4)c4cn(C)nc34)ccc21 (stereo not drawn) [Compound 490, 2,2,2-trifluoroacetate]
2. CCNC1CCN(c2cc(F)c(C(=O)Nc3cn4cc(C)nc(C)c4n3)c3nn(C)cc23)CC1
3. CCNC1CCN(c2ccc(C(=O)Nc3cc4cn(C)nc4cc3O)c3[nH]ccc23)CC1
4. COc1cc2nc(C)cn2cc1NC(=O)c1cnc(N2CCC(NC3CC3)CC2)c2cn(C)nc12
5. CCNC1CCN(c2cc(F)c(C(=O)Nc3cn4ccncc4n3)c3nn(C)cc23)CC1
6. COc1c(NC(=O)c2ccc(N3CCNCC3)c3cn[nH]c23)cn2cc(C)nc2c1F

1000 to 10000 nM
< 100 nM
> 10000 nM
100 to 1000 nM
1000 to 10000 nM
< 100 nM

# query: IC50 | item COc1cc2nn(C)cc2cc1NC(=O)c1c(O)cc(N2CCC(NC3CC3)CC2)c2cn(C)nc12 | system: MYB mRNA
< 100 nM
